EXPERIMENT DESCRIPTION: PAMPA (parallel artificial membrane permeability assay)
Format: in vitro ADME
PARTICULARS: PAMPA; membrane permeation rate (Pe); 50 mM MOPSO buffer pH 6.5 with 5.0% glycocholic acid, 37° C., 18 hours; read-out: iPAMPA Pe
Starred links: 1 amine or outer side, 2 acyl side, 3 side chain; linkers in the order of their positions; H or OH if unused. Positions of bridges follow the written chain, without caps; N, C: chain ends. Non-standard residues stand in square brackets, D forms with d. Residues, ends and D or L forms follow the SMILES beside them. *: point of attachment. NMeF = CN[C@@H](Cc1ccccc1)C(=O)O; NMeI = CC[C@H](C)[C@H](NC)C(=O)O; NMeβAla = CN(CCC(=O)[*:2])[*:1]; Aoc(2) = CCCCCC[C@H](N)C(=O)O; NMeL = CN[C@@H](CC(C)C)C(=O)O; NMeV = CN[C@H](C(=O)O)C(C)C; NMeA = CN[C@@H](C)C(=O)O; Piperidide = C1CCN(*)CC1; dNMeA = CN[C@H](C)C(=O)O; β3hA = C[C@H](N)CC(=O)O; Sar = CNCC(=O)O; tBu = CC(C)(C)*
molecules and their reported Papp at 18 hours, 50 µM
PARAMETER: Papp at 18 hours, 50 µM

INSERT INTO measurements (molecule, test_value) VALUES
  ('CC(C)C[C@@H](C(=O)N[C@@H](C)C(=O)N1CCCCC1)N(C)C(=O)[C@H](C)N(C)C(=O)[C@@H]1CC(=O)N[C@H](C(C)C)C(=O)N(C)[C@@H](C)C(=O)N(C)[C@@H](CC(C)C)C(=O)N(C)[C@@H](CC(C)C)C(=O)N(C)CC(=O)N(C)[C@@H](Cc2ccccc2)C(=O)N[C@@H](C)C(=O)N(C)[C@@H](Cc2ccccc2)C(=O)N(C)[C@@H](CC(C)C)C(=O)N[C@@H]([C@@H](C)O)C(=O)N1 [DP-582] ([dV][NMeA][NMeL][NMeL][Sar][NMeF]A[NMeF][NMeL]TD[NMeA][NMeL]A-Piperidide; lactam N-11)', '21 ×10⁻⁶ cm/s'),
  ('CCCCCC[C@@H]1NC(=O)[C@H](CC(C)C)N(C)C(=O)CN(C)C(=O)[C@H](CC(C)C)NC(=O)C[C@H](C)NC(=O)[C@H](CC(C)C)N(C)C(=O)[C@H](CC(C)C)N(C)C(=O)[C@H](CC(C)C)N(C)C(=O)[C@@H](C)NC(=O)[C@H](CO)NC(=O)[C@H](CC(C)C)N(C)C1=O [DP-647] (cyclo([Aoc(2)][NMeL]S[dA][NMeL][NMeL][NMeL][β3hA]L[Sar][NMeL]))', '29 ×10⁻⁶ cm/s'),
  ('CC(C)C[C@H]1C(=O)N(C)[C@@H](Cc2ccccc2)C(=O)N(C)[C@@H](CC(C)C)C(=O)N[C@@H]([C@@H](C)O)C(=O)N(C)CC(=O)N[C@@H](COC(C)(C)C)C(=O)N(C)[C@@H](CC(C)C)C(=O)N[C@H](C(=O)N2CCCCC2)CC(=O)N1C [DP-689] ([NMeL][NMeF][NMeL]T[Sar]S(tBu)[NMeL]D-Piperidide; lactam N-8)', '44 ×10⁻⁶ cm/s'),
  ('CC(C)C[C@H]1C(=O)N(C)[C@@H](Cc2ccccc2)C(=O)NCC(=O)N(C)[C@@H](Cc2ccccc2)C(=O)N(C)[C@@H](C)C(=O)N[C@@H]([C@@H](C)O)C(=O)N[C@H](C(=O)N(C)[C@@H](Cc2ccccc2)C(=O)N(C)[C@@H](Cc2ccccc2)C(=O)N[C@@H](C)C(=O)N2CCCCC2)CC(=O)N(C)[C@H](C)C(=O)N[C@@H](C(C)C)C(=O)N1C [DP-213] ([dNMeA]V[NMeL][NMeF]G[NMeF][NMeA]TD[NMeF][NMeF]A-Piperidide; lactam N-9)', '55 ×10⁻⁶ cm/s'),
  ('CC[C@H](C)[C@H]1C(=O)N[C@@H](Cc2ccccc2)C(=O)N[C@H](C(=O)N2CCCCC2)CC(=O)N(C)CCC(=O)N(C)[C@@H](C(C)C)C(=O)N[C@@H](Cc2ccccc2)C(=O)N[C@@H](CC(C)C)C(=O)N(C)[C@@H](C)C(=O)N[C@@H]([C@@H](C)O)C(=O)N[C@@H](CC(C)C)C(=O)N(C)[C@@H](CC(C)C)C(=O)NCC(=O)N1C [DP-221] ([NMeβAla][NMeV]FL[NMeA]TL[NMeL]G[NMeI]FD-Piperidide; lactam N-12)', '31 ×10⁻⁶ cm/s');
